# Method: in vitro
# Type: in vitro ADME, mouse
# Run conditions: Table S22; 1 μM compound, pooled CD-1 mouse plasma; read-out: Mouse plasma t1/2
# Protocol: Plasma stability assays: To determine stability in plasma, the compound (1 μM) was incubated with pooled CD-1 mouse plasma (Neo Biotech, Nanterre, France). […] The plasma stability of procain, propantheline and diltiazem were determined in parallel to confirm the enzymatic activity. […] Concentration of the remaining test compound at the different time points was analyzed by HPLC-MS/MS (Vanquish Flex coupled to a TSQ Altis Plus, Thermo Fisher, Dreieich, Germany). […]
Provide the reported half-life at 1 μM of each item.

Identify measured half-life at 1 μM corresponding to C[C@H]1C/C=C/[C@H]2[C@@H]3O[C@]3(C)[C@@H](C)[C@H]3[C@H](Cc4ccccc4Br)NC(=O)[C@]32C(=O)C[C@@H](O)[C@@](C)(O)C1=O [Compound 21, o-bromo-19-hydroxy-21-oxocytochalasin Q]
> 4 h

Identify measured half-life at 1 μM corresponding to CC(=O)OC1C2OC2C(C)(O)C(=O)C(C)CC=CC2C3OC3(C)C(C)C3C(Cc4cccc(Cl)c4)NC(=O)C213 (stereo not drawn)
> 4 h

Identify measured half-life at 1 μM corresponding to CC1CC=CC2C3OC3(C)C(C)C3C(Cc4ccccc4)NC(=O)C23C(O)C2OC2C(C)(O)C1=O (stereo not drawn)
> 4 h
